experimental_system: LTA4 hydrolase activity in human whole blood (Homo sapiens, UniProt P09960)
Sequence (P09960 whole entry): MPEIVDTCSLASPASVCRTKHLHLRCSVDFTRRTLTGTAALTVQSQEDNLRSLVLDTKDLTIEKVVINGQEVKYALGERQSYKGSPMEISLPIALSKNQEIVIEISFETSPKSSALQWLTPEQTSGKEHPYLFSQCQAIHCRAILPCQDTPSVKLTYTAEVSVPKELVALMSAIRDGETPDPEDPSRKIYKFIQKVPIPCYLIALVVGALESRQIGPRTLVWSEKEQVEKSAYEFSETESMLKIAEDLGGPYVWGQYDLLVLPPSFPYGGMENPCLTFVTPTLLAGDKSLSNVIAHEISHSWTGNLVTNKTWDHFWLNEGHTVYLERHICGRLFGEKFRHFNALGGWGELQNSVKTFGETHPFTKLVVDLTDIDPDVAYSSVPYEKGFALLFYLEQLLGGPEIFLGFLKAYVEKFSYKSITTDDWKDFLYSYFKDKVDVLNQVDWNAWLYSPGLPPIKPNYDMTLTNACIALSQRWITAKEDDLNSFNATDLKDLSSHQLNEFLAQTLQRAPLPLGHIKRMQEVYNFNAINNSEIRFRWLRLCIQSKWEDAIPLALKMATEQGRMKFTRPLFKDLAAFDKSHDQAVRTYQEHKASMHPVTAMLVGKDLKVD
procedure_details: Inhibition of the biosynthesis of LTB4 in vitro in human whole blood
details: LTA4 substrate, LTB4 by enzyme-linked immunoassay
pKi: −log10 of the molar value. Counter-ions that a name gives are not always drawn.
readout_label: pKi

{"compound": "NC(CS)CCOc1ccccc1 (racemic) [Example 172, hydrochloride]", "readout_label": "pKi", "quantitative_result": 6.72}
{"compound": "NC(CS)CCCCc1ccccc1 (racemic) [Example 173, hydrochloride]", "readout_label": "pKi", "quantitative_result": 6.70}

====

experimental_system: aminopeptidase M (EC 3.4.11.2) (Sus scrofa, UniProt P15145)
Sequence (P15145 1-963): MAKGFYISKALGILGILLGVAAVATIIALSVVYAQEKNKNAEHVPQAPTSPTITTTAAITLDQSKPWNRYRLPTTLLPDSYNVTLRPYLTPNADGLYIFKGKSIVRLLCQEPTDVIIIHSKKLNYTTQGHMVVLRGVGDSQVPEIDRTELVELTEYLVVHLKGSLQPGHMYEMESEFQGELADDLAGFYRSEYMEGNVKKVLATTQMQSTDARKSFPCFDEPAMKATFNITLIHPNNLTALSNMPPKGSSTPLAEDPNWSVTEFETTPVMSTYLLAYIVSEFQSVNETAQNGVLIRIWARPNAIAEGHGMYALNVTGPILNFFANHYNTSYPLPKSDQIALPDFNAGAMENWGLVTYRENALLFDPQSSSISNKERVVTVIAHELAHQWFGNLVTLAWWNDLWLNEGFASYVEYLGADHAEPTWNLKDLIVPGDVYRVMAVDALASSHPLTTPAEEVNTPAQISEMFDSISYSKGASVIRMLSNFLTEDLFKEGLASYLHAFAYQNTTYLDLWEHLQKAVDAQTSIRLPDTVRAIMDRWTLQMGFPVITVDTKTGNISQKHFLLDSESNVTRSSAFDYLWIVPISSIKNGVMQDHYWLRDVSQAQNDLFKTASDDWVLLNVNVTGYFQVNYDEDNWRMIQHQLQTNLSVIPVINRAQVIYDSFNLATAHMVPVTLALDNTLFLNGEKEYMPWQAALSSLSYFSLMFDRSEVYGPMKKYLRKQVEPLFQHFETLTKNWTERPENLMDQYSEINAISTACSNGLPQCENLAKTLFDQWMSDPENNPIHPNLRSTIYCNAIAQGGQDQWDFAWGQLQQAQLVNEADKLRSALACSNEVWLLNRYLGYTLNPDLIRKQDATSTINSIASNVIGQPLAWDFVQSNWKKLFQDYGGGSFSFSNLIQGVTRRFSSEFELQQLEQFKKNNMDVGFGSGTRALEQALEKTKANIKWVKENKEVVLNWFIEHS
pKi: −log10 of the molar value. Where a name gives a salt, the structure may show the parent alone.

{"compound": "NC(CS)CCCCc1ccccc1 (racemic) [Example 173, hydrochloride]", "pKi": 6.70}
